experiment: calorie-restriction mimetic ROS inhibitors, yeast – validation compound set, pilot screen (AID 2706);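 also: yeast exposed to compound for one week at 30 degrees C before staining; 100% = mean of all compound wells on the same plate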; conditions: S. cerevisiae aging, superoxide DHE fluorescence; at 10 µM; hits give low values
Recorded superoxide response (% of plate) values for a group of compounds are listed next.
# output: bare number, implied unit %

Example compounds with recorded superoxide response (% of plate):
>>> print(df.to_string())
                                   compound  reported
0     C[N+](C)(C)CCOP(=O)([O-])OC[C@H](O)CO      94.8
1  COc1ccccc1C(O)c1nccn1C (configuration not stated)      81.3
2  CC(C)CCC1(CCNC(C)c2cccs2)CCOC(C)(C)C1 (configuration not stated)      96.5
3          O=C(CCc1c[nH]c2ccccc12)NCc1ccco1      98.4

Inquiry: Given the compound `COc1ccc(/C=C\c2nc(=O)c3ccccc3o2)cc1` , what is its reported superoxide response (% of plate)?
Reply text: 108

Inquiry: Quick check: superoxide response (% of plate) of `CCOc1ccc2nc(N/C(N)=N/S(C)(=O)=O)nc(C)c2c1` ?
Reply text: 98.7

Inquiry: Reported superoxide response (% of plate), compound `CCN(CC)CCOC(=O)C(c1ccccc1)c1ccccc1` : ____
Reply text: 105

Inquiry: Query (compound): `CSCC[C@H](NC(=O)OC(C)(C)C)C(=O)N1CCC(C(=O)N[C@@H](C)C(=O)O)CC1` ; field requested: superoxide response (% of plate)
Reply text: 98.8

Inquiry: Can you look up the measured superoxide response (% of plate) of `CCOCC(=O)Nc1ccccc1C(=O)N1CCOCC1` for me?
Reply text: 96.8

Inquiry: Recorded superoxide response (% of plate) of COc1c(O)ccc2c1CN1CCc3cc4c(cc3C1C2)OCO4 (configuration not stated) , please.
Reply text: 92.6

Inquiry: Name the recorded superoxide response (% of plate) for CCCCCCCC(=O)OCC(O)CO (configuration not stated) .
Reply text: 110

Inquiry: Fill in the blank: the reported superoxide response (% of plate) of `CCN1CCN(C(=S)c2ccc(OC)cc2)CC1` is ____.
Reply text: 106
